Listed next: entries and their corresponding solubility kinetic.
assay_remarks: SUPPLEMENTARY: Lyophilisation Solubility Assay (LYSA)
Format: physicochemical
condition_details: read-out: Kinetic_solubility
Provide the reading as a plain figure in µg/mL.

// worked examples, solubility kinetic included
O=C(COc1ccccc1)N1CCCC[C@@H]1c1nc(-c2cccnc2)cs1; 37
CN1CCN(C(=O)COc2ccccc2)[C@@H](c2nc(-c3ccc4[nH]nnc4c3)no2)C1; 167
COc1ccc(Cl)cc1S(=O)(=O)c1c[nH]c2ccc(C(=O)Nc3ccc(CC(=O)O)cc3)cc12; 41
COc1ccc(Cl)cc1S(=O)(=O)N1CCSc2ccc(C(=O)Nc3ccc(C(=O)O)cc3)cc21; 4

Query molecule follows.
Entry `O=C(COc1ccccc1)N1CCCC[C@@H]1c1noc(-c2ccc3ncsc3c2)n1` : reported solubility kinetic = ? 2

----------
assay_remarks: SUPPLEMENTARY: Lyophilisation Solubility Assay (LYSA)
Format: physicochemical
condition_details: read-out: Kinetic_solubility
quantity_kind: log10 of solubility kinetic (log10 of the value in µg/mL)
Please keep in mind that the values are log10 of solubility kinetic expressed in µg/mL.

Examples from the recorded data:
O=C(O)c1ccc(NC(=O)c2ccc(Cl)c(NS(=O)(=O)c3cc(Cl)cc(Cl)c3)c2)cc1; 1.11
O=C(O)Cc1ccc(NC(=O)c2ccc3c(c2)N(S(=O)(=O)c2cccc(Cl)c2)CC3)cc1; 1.30
O=C(COc1ccccc1)N1CCCC[C@@H]1c1nc(-c2ccc(F)c(F)c2)n[nH]1; 1.89
COc1ccc(Cl)cc1CN1C(=O)CSc2ccc(C(=O)Nc3nc(CC(=O)O)cs3)cc21; 1.49
NS(=O)(=O)c1ccc(-c2noc(C3C4CC4CN3C(=O)COc3ccccc3)n2)cc1 (centres undefined); 1.65
O=C(COc1ccccc1)N1CCCC[C@@H]1c1nc(-c2cccc(O)c2)no1; 0.85

Please examine the following record next.
// query log10 of solubility kinetic value for entry `COc1ccc(Cl)cc1CN1C(=O)C2(CC2)c2ccc(C(=O)Nc3nc(CC(=O)O)cs3)cc21` 1.68

----------
system_tested: Carnitine O-palmitoyltransferase 1, liver isoform (Homo sapiens, UniProt P50416)
Sequence (P50416 whole entry): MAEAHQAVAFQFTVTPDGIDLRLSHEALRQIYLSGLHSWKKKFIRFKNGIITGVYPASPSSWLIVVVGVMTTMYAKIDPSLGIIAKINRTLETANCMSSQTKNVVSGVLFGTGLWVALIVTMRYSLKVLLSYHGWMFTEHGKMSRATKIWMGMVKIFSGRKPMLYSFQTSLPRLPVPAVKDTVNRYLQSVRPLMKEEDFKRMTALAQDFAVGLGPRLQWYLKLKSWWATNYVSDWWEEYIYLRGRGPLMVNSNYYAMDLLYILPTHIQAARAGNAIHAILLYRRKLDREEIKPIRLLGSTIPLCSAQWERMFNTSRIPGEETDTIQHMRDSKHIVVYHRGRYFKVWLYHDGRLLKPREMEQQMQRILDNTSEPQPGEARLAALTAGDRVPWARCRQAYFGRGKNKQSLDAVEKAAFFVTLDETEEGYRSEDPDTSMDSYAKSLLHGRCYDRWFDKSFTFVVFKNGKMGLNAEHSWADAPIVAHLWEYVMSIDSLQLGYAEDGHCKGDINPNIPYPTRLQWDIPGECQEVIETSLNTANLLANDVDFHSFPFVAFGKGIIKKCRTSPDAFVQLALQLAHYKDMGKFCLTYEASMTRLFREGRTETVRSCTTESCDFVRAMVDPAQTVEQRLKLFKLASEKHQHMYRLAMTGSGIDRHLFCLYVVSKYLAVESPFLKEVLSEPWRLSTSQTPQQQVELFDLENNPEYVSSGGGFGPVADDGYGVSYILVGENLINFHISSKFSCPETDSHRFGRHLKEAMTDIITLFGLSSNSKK
assay_remarks: SUPPLEMENTARY: Inhibition of Carnitine palmitoyltransferase 1, liver isoform
quantity_kind: pIC50
Hey, just a heads up that pIC50 is the negative log base 10 of the concentration in molar.

CS(=O)(=O)c1cccc(-c2nc([C@H]3CCCCN3C(=O)COc3ccccc3)no2)c1; 6.69
O=C(COc1ccccc1)N1CCCC[C@@H]1c1nc(-c2ccc([N+](=O)[O-])s2)no1; 6.65
O=C(Nc1ccc(-c2nnn[nH]2)cc1)c1cccc(NS(=O)(=O)c2cccc(Cl)c2)c1; 7.70
O=C(NCc1ccccc1)[C@H]1CCCCN1C(=O)COc1ccccc1; 5.59
COc1ccc(Cl)cc1S(=O)(=O)N1CC(C)c2ccc(C(=O)Nc3ccc(C(=O)O)c(F)c3)cc21 (stereo unspecified); 7.04
O=C(NCc1ccc(-c2nnn[nH]2)cc1)c1nn(Cc2ccc(OC(F)F)cc2)c2ccc(F)cc12; 6.66
O=C(COc1ccncc1)N1CCCC[C@@H]1c1nnc(-c2cccc(C(F)(F)F)c2)[nH]1; 6.78
O=C(COc1ccccc1)N1CCCC[C@@H]1c1noc(-c2cccc3[nH][nH]c(=O)c23)n1; 7.00
CCn1c(C)nc(Cl)c1-c1noc([C@H]2CCCCN2C(=O)COc2ccccc2)n1; 7.13
COc1ccc(Cl)cc1S(=O)(=O)N1COc2c(F)cc(C(=O)Nc3ccc(C(=O)O)cc3)cc21; 7.37

Read the next record carefully.
Under Carnitine O-palmitoyltransferase 1, liver isoform (Homo sapiens, UniProt P50416): pIC50 value of `NC(=O)COc1cccc(-c2noc([C@H]3CCCCN3C(=O)COc3ccccc3)n2)c1` ? 7.20

----------
system_tested: Carnitine O-palmitoyltransferase 1, liver isoform (Homo sapiens)
assay_remarks: SUPPLEMENTARY: Inhibition of Carnitine palmitoyltransferase 1, liver isoform
quantity_kind: IC50 (nM)
The reply should contain only the number, in nM.

O=C(O)c1cccc(-c2noc([C@H]3CCCCN3C(=O)COc3ccccc3)n2)c1; 93.5
COc1ccc(Cl)cc1S(=O)(=O)N1COc2c(F)cc(C(=O)Nc3ccc(C(=O)O)c(F)c3)cc21; 61.7
COc1ccc(Cl)cc1CN1C(=O)C(C)(C)c2ccc(C(=O)Nc3nc(CC(=O)O)cs3)cc21; 46.8
O=C(COc1ccccc1)N1CCCC[C@@H]1c1noc(-c2ccc(C(F)(F)F)nc2)n1; 197
COc1ccc(Cl)cc1CN1C(=O)OCc2ccc(C(=O)Nc3ccc(CC(=O)O)cc3)cc21; 294
COc1ccc(Cl)cc1S(=O)(=O)c1nn(CCC(=O)O)c2ccc(C(=O)Nc3ccccc3)cc12; 14.7
Cc1nn(C)c(-c2noc([C@H]3CCCCN3C(=O)COc3ccccc3)n2)c1Cl; 79.1
O=C(COc1ccccc1)N1CCCC[C@@H]1c1noc(-c2ccc3[nH]c(=O)c(=O)[nH]c3c2)n1; 140

Now for a further compound.
Need IC50, item `O=C(COc1ccccc1)N1CCCC[C@@H]1c1noc(-c2ccc3cccnc3n2)n1` 129

----------
assay_remarks: SUPPLEMENTARY: Lyophilisation Solubility Assay (LYSA)
Format: physicochemical
condition_details: read-out: Kinetic_solubility
quantity_kind: solubility kinetic (µg/mL)
Express it in µg/mL; write the number only.

COc1ccc(Cl)cc1CN1C(=O)OC(C)(C)c2ccc(C(=O)Nc3ccc(C(=O)O)c(Cl)c3)cc21; 30

So what does the record say about solubility kinetic for `COc1ccc(Cl)cc1S(=O)(=O)N1CCNc2ccc(C(=O)Nc3ccc(C(=O)O)cc3)cc21` ? 1

Please look up its solubility kinetic: `O=C(Nc1ccc(-c2nnn[nH]2)cc1)c1nn(Cc2ccc(OC(F)F)cc2)c2ccc(F)cc12` 1

Give the measured solubility kinetic of `N#Cc1ccc(-c2nc([C@H]3CCCCN3C(=O)COc3ccccc3)no2)cc1` . 6

Fill blank: measured solubility kinetic of the molecule `NC(=O)c1ccc(-c2noc([C@H]3CCCCN3C(=O)COc3ccccc3)n2)cc1` is ____. 52

----------
assay_remarks: SUPPLEMENTARY: Lyophilisation Solubility Assay (LYSA)
Type: physicochemical
condition_details: read-out: Kinetic_solubility
Form field: solubility kinetic (one value per entry).
Answer format: numeric, µg/mL implied, no suffix.

Please review the entries below; each comes with its answer.
CC(=O)Nc1cccc(-c2nc([C@H]3CCCCN3C(=O)COc3ccccc3)no2)c1; 17
COC(=O)[C@H]1CCCC[C@@H]1c1nc([C@H]2CCCCN2C(=O)COc2ccccc2)no1; 11
O=C1CCN1c1cccc(-c2n[nH]c([C@H]3CCCCN3C(=O)COc3ccccc3)n2)c1; 33

Would you kindly share the measured solubility kinetic for `COc1ccc(Cl)cc1S(=O)(=O)N1CCCCc2ccc(C(=O)Nc3nc(CC(=O)O)cs3)cc21` ? 216

What does the record list as solubility kinetic for `COc1ccc(Cl)cc1S(=O)(=O)N1COc2c(F)cc(C(=O)Nc3nc(CC(=O)O)cs3)cc21` ? 309

Looking for the measured solubility kinetic of `COc1ccc(Cl)cc1S(=O)(=O)N1CCOc2ccc(C(=O)Nc3ccc(C(=O)O)cc3)cc21` , can you help? 8

Request the reported solubility kinetic associated with `COc1ccc(Cl)cc1S(=O)(=O)Nc1cc(C(=O)Nc2ccc(C(=O)O)cc2)cn(C)c1=O` 13

So what's the measured solubility kinetic for this one? `O=C(COc1ccccc1)N1CCCC[C@@H]1c1noc(-c2cc([N+](=O)[O-])[nH]n2)n1` 68
